# Tested on: Plasmodium falciparum
# ASSAY_SUMMARY: GSK_TCMDC: Inhibition of Plasmodium falciparum Dd2 in whole red blood cells, using parasite LDH activity as an index of growth. Test compounds present at 2uM
# Assay type: functional
Entry class follows Inhibition: low (below 30%), mid (30% to below 80%), high (80% or more)

COc1ccc(NC(=O)[C@H](Cc2ccccc2)Nc2cc(C)nc(NCCc3ccccc3)n2)cc1.O=C(O)C(F)(F)F = high
COCCNCc1ccc(-c2ccc3c(Nc4ccc(Cl)cc4F)ccnc3c2)o1 = high
O=C(c1cccc(-c2noc(C(F)(F)F)n2)c1)N1CCN(c2ccncc2)CC1 = mid
Nc1ncc(-c2ccc(NC(=O)Nc3cc(C(F)(F)F)ccc3F)cc2)c(N)n1.O=C(O)C(F)(F)F = low
O=C(Nc1ccc(-c2ccccc2)cc1)Nc1cccc(Cn2cnc(N3CCCNCC3)cc2=O)c1.O=C(O)C(F)(F)F = low
CC(C)C[C@@H](C(=O)N[C@H](C(=O)Nc1nccs1)C(C)(C)C)[C@H](CCC(F)(F)F)N(O)C=O = mid
COc1cc(-c2nc(C(C)(C)CN)[nH]c2-c2ccncc2)ccc1Br.Cl = high
CC(C)C[C@H](NC(=O)c1cc2ccccc2s1)C(=O)N[C@H]1CCN(Cc2ccc(OC3CCN(C)C3)c(Cl)c2)C1.O=C(O)C(F)(F)F (some centres not stated) = mid

Prompt: Hello team, could you let me know which band the following molecule falls into: "Cc1cc(N2CCCC2)nc(Nc2ccc(NC(=O)COc3ccccc3)cc2)n1"
Completion: high

Prompt: Hello team, could you let me know which band the following molecule falls into: "O=C(Cn1c(CCc2cccc(F)c2F)nc(=O)c2ccccc21)N(Cc1ccc(-c2ccc(C(F)(F)F)cc2)cc1)C1CCN(C2CCOCC2)CC1.O=C(O)C(O)C(O)C(=O)O"
Completion: mid

Prompt: Hello team, could you let me know which band the following molecule falls into: "COc1ccc2nccc([C@@H](O)CN3CCC(NCc4nc5c(OCc6ccccc6)cccc5[nH]4)CC3)c2c1.O=C(O)C(=O)O"
Completion: mid

Prompt: Hello team, could you let me know which band the following molecule falls into: "CCCc1nc2c(N3CC(NC(=O)/C=C/c4ccccc4)C3)cccc2n1C1CC1"
Completion: mid
